- Test System: UniProtKB P49840
- Sequence (P49840 whole entry, looked up): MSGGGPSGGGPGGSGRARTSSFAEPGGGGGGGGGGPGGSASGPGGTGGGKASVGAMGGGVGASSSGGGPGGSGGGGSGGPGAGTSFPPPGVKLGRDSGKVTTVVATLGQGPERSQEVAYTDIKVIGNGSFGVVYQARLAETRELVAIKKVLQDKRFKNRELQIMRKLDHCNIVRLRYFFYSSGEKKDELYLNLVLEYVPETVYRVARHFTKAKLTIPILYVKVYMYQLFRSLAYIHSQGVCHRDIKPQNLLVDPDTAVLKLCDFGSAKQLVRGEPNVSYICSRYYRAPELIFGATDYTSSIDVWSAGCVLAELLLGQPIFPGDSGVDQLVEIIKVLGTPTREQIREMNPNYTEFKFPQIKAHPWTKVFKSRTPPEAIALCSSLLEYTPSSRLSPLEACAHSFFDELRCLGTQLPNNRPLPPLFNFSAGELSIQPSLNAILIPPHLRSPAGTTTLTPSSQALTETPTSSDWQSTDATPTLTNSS
- Procedure Text: concentration-response blocking of human GSK3A – biochemical, luminescence, cell-free homogeneous, retest, dose response (AID 463203)
- Condition Label: GSK-3 alpha enzyme, ADP-Glo luminescence, 60 min
The source made the active and inactive calls.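 The calls were made as follows: active = more than half of replicate measurements showing over 20% loss of kinase signal relative to plate controls; inconclusive = some but at most half of replicates over 20% loss; inactive = no replicate over 20% signal loss.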
Field: AC50. Provide a value for each of the compounds that follow.

Solved cases below.
Nc1ncnc2c1ncn2[C@@H]1O[C@H](COS(=O)(=O)O)[C@@H](O)[C@H]1O	> 30 µM (inactive)
COc1cccc(-c2c(C(=O)N/N=C(\C)c3cccnc3)nnn2-c2nonc2N)c1	> 30 µM (inactive)
CCCCOC(=O)C1=C(C)Nc2ncnn2C1c1ccc(OC)c(OC)c1 (centres undefined)	> 30 µM (inactive)

Please state, for each entry, its recorded AC50.
1. Nc1cc(C(=O)O)c(N)c2c1C(=O)c1ccccc1C2=O
2. CCC(CC)c1nnc(NC(=O)CCN2C(=O)c3ccccc3C2=O)s1
3. Cc1cc(C(C#N)c2ccccc2)n2ncnc2n1 (centres undefined)
4. O=C1NC(=Nc2ccccc2)S/C1=C\c1cccs1
5. CC(=O)N1CCc2c(sc(NC(=O)c3cccc(N4C(=O)CCC4=O)c3)c2C(N)=O)C1
6. C/C(=N\NC(=O)c1ccccc1NC(=O)c1ccc(Cl)cc1)c1ccncc1
7. Nc1nc(NCCc2ccccc2)nc(NCc2ccccc2)c1[N+](=O)[O-]
8. COc1ccc2cc(C(N)=O)c(=Nc3ccccc3)oc2c1

Reply |
["7.46 µM", "> 30 µM (inactive)", "3.35 µM", "> 30 µM (inactive)", "> 30 µM (inactive)", "12.6 µM", "1.66 µM", "> 30 µM (inactive)"]

Value sought for every listed compound: AC50.
1. NC(=O)N/N=C/c1c(O)ccc2oc3c(c12)CCCC3
2. COC(=O)c1cn(C(=O)c2ccc(Cl)cc2)c2ccccc12
3. Cc1cccc(-n2nc(C)c3c2NC2=C(C(=O)CCC2)C3c2ccccn2)c1 (centres undefined)
4. c1ccc2[nH]c(C3CC3)nc2c1
5. CCSc1nc(N)c(C#N)c(-c2ccco2)c1C#N
6. O=[N+]([O-])c1ccc(NCCCN2CCOCC2)c2ncccc12
7. O=C(Nc1ccccc1C(=O)NC1CCCCC1)c1ccco1

Reply |
1: 0.845 µM; 2: > 30 µM (inactive); 3: > 30 µM (inactive); 4: > 30 µM (inactive); 5: > 30 µM (inactive); 6: > 30 µM (inactive); 7: > 30 µM (inactive)

Batch request: AC50 per item, same order as input.
1. CCOc1cccc(-c2c(C(=O)N/N=C/c3cccnc3)nnn2-c2nonc2N)c1
2. Cc1ccc(NC(=O)CSc2nnc(-c3ccncc3)s2)cc1
3. CC(C)(C)C(=O)c1cnc(Nc2ccccc2Cl)s1
4. Cc1cc(C)cc(NC(=O)CSCc2nc3c(nnn3Cc3ccc(F)cc3)c(=O)[nH]2)c1

Reply |
["4.67 µM", "> 30 µM (inactive)", "> 30 µM (inactive)", "> 30 µM (inactive)"]

* * *

- Test System: Glycogen synthase kinase-3 alpha (Homo sapiens)
- Procedure Text: concentration-response blocking of human GSK3A – biochemical, luminescence, cell-free homogeneous, retest, dose response (AID 463203)
- Condition Label: GSK-3 alpha enzyme, ADP-Glo luminescence, 60 min
Active and inactive are the calls of the source.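 Rule for the calls: active = more than half of replicate measurements showing over 20% loss of kinase signal relative to plate controls; inconclusive = some but at most half of replicates over 20% loss; inactive = no replicate over 20% signal loss.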
# valid calls are active, inactive; nothing else

C/C(=N\NC(=O)c1nnn(-c2nonc2N)c1-c1cccs1)c1cccnc1	active
Cc1ccc(S(=O)(=O)N2CCN(CC(=O)N/N=C\c3ccccn3)CC2)cc1	inactive

Ask | So what was the verdict on `NC1=NC(=O)/C(=C/c2ccc(-c3ccc(S(N)(=O)=O)cc3)o2)S1` in this test?
Reply | active

Ask | Dear colleague, could you share the recorded outcome for `CCOC(=O)c1cnc2c(Cl)c(Cl)ccc2c1N1CCN(C)CC1` when you have a moment?
Reply | inactive

Ask | Test call for this molecule, please: `CN1/C(=C\C=C(/C#N)C(=O)Nc2ccccc2F)C(C)(C)c2ccccc21`
Reply | inactive

Ask | Call for entry `COc1ccc(NC(=O)CSc2nc3[nH]ncc3c(=O)n2-c2ccccc2OC)cc1OC` :
Reply | inactive

Ask | Each molecule tested received a call. Report the one for `O=C(O)c1cccc2c1C(=O)c1ccccc1C2=O` .
Reply | inactive

Ask | What is the recorded call for this molecule in the test? `O=C(Nc1cccc(-c2cnc3ccccc3n2)c1)c1cccc(NC(=O)c2ccco2)c1`
Reply | inactive

Ask | Status in this test for `COC(=O)c1ccc(CSc2ccc3nnc(-c4ccc(OC)cc4)n3n2)o1` ?
Reply | active

Ask | So what was the verdict on `Cc1ccc(CSc2ccc3nnc(-c4cccnc4)n3n2)cc1` in this test?
Reply | inactive

Ask | I would be grateful if you could indicate the recorded call for `COc1ccccc1N1CCN(C(=O)c2cc(-c3ccccc3)on2)CC1` .
Reply | inactive
